All values here come from patent US20260306640A1.

target: KAT2A (Homo sapiens, UniProt Q92830); experiment: KAT2A degradation, Western Blot (Jess), NCI-H1048 cells; type: cell-based; parameters: degrader, Western blot (Jess); conditions: NCI-H1048 cells, KAT2A, 24 h, Western Blot, vs DMSO; read-out: KAT2A NCI-H1048 DC50
Sequence (Q92830 whole entry): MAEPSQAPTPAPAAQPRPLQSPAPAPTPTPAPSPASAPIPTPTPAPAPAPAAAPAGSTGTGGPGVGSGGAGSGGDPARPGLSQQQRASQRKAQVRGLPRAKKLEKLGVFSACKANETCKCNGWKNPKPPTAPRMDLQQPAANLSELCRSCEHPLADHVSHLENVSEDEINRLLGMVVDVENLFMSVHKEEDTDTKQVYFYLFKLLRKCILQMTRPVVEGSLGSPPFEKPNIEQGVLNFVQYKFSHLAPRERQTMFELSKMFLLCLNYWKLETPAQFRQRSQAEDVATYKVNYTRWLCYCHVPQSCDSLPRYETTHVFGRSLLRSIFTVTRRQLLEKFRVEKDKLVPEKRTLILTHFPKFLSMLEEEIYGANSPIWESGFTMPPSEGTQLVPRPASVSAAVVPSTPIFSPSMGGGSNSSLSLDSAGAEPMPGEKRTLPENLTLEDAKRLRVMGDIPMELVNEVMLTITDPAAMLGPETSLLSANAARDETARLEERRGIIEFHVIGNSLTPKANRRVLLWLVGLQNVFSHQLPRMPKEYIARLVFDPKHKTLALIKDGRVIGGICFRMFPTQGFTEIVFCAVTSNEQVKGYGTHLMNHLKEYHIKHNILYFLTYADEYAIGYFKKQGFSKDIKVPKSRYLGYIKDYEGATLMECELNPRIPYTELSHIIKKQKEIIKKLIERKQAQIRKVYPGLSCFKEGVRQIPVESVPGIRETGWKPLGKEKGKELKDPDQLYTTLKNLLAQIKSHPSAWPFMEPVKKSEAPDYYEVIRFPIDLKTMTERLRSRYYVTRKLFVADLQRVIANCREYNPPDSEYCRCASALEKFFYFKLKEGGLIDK
Reported values of DC50 for individual entries

Worked cases, answers included:
Challenge: Reported DC50 for CN1C[C@H](Nc2cnn(C)c(=O)c2Cl)C[C@H](c2ccc(C(=O)N3CCC4(CCN(Cc5ccc(C6CCC(=O)NC6=O)c(F)c5)CC4)CC3)cc2)C1 (stereo partly shown) : what is it?
Response given: < 1 nM

Challenge: Reported DC50 for Cc1cc(N2CCC3(CCN(C(=O)c4ccc([C@H]5C[C@@H](Nc6cnn(C)c(=O)c6Br)CN(C)C5)cc4)CC3)CC2)cc(F)c1C1CCC(=O)NC1=O (stereo partly shown) : what is it?
Response given: < 1 nM

Challenge: Reported DC50 for `Cc1cc(N2CCC3(CCN(C(=O)c4ccc([C@H]5C[C@@H](Nc6cnn(C)c(=O)c6Cl)CN(C)C5)cc4)CC3)CC2)cc(C)c1N1CCC(=O)NC1=O` : what is it?
Response given: > 30 nM

Challenge: Reported DC50 for CN1C[C@H](Nc2cnn(C)c(=O)c2Br)C[C@H](c2ccc(C(=O)N3CCC4(CC3)CCN(c3cnc(C(=O)NC5CCC(=O)NC5=O)c(F)c3)CC4)cc2)C1 (stereo partly shown) : what is it?
Response given: < 1 nM

Challenge: Reported DC50 for CN1C[C@H](Nc2cnn(C)c(=O)c2Br)C[C@H](c2ccc(C(=O)N3CCN(Cc4cnn(C5CCC(=O)NC5=O)c4)CC3)cc2)C1 (stereo partly shown) : what is it?
Response given: > 30 nM

Challenge: Reported DC50 for CN1C[C@H](Nc2cnn(C)c(=O)c2Br)C[C@H](c2ccc(CN3CCN(c4ccc5c(C6CCC(=O)NC6=O)cncc5c4)CC3)cc2)C1 (stereo partly shown) : what is it?
Response given: < 1 nM

Challenge: Reported DC50 for CN1C[C@H](Nc2cnn(C)c(=O)c2Cl)C[C@H](c2ccc(C(=O)N3CC(C#Cc4ccc(C5CCC(=O)NC5=O)cc4)C3)cc2)C1 (stereo partly shown) : what is it?
Response given: < 1 nM

Challenge: Reported DC50 for CN1C[C@H](Nc2cnn(C)c(=O)c2Br)C[C@H](c2ccc(C(=O)N3CCC(CN4CCN(c5ccc6c(c5)CN(C5CCC(=O)NC5=O)C6=O)CC4)CC3)cc2)C1 (stereo partly shown) : what is it?
Response given: < 1 nM

Continuing:
Challenge: Reported DC50 for CN1C[C@H](Nc2cnn(C)c(=O)c2Cl)C[C@H](c2ccc(C(=O)N3CCC4(CC3)CCN(c3ccc(C5CCC(=O)NC5=O)cn3)CC4)cc2)C1 (stereo partly shown) : what is it?
Response given: < 1 nM

Challenge: Reported DC50 for COc1cc(C2CCC(=O)NC2=O)ccc1N1CCC2(CCN(C(=O)c3ccc([C@H]4C[C@@H](Nc5cnn(C)c(=O)c5Br)CN(C)C4)cc3)CC2)CC1 (stereo partly shown) : what is it?
Response given: < 1 nM

Challenge: Reported DC50 for CN1C[C@H](Nc2cnn(C)c(=O)c2Cl)C[C@H](c2ccc(C(=O)N3CCC4(CC3)CCN(c3ccc(C(=O)NC5CCC(=O)NC5=O)c(F)c3)CC4)cc2)C1 (stereo partly shown) : what is it?
Response given: < 1 nM

Challenge: Reported DC50 for Cc1c(N[C@@H]2C[C@H](c3ccc(C(=O)N4CCC5(CC4)CCN(c4ccc(C6CCC(=O)NC6=O)c(C(F)(F)F)c4)CC5)cc3)CN(C)C2)cnn(C)c1=O (stereo partly shown) : what is it?
Response given: > 30 nM

Challenge: Reported DC50 for Cc1cc(C2CCC(=O)NC2=O)c(F)cc1N1CCC2(CCN(C(=O)c3ccc([C@H]4C[C@@H](Nc5cnn(C)c(=O)c5Cl)CN(C)C4)cc3)CC2)CC1 (stereo partly shown) : what is it?
Response given: < 1 nM

----------
Target: UniProtKB Q92830
Assay: KAT2A degradation, Western Blot (Jess), MOLM-13 cells
Format: cell-based
Design: degrader, Western blot
Settings: MOLM-13 cells, KAT2A, 24 h, Western Blot, vs DMSO; read-out: KAT2A MOLM-13 DC50
Excerpt: MOLM-13 cells or NCI-H1048 cells were used for Western Blot analysis of KAT2A degradation. KAT2B degradation can be measured in a similar manner with NCI-H1048 cells. […] MOLM-13 cells or NCI-H1048 cells were washed with PBS, then lysed with RIPA buffer containing 1×protease and phosphatase inhibitors (SantaCruz Biotechnologies Cat #sc-24948A). […] Protein was quantified via Bradford assay. […] Signal was detected by chemiluminescence. […]
test-readout: DC50

Challenge: Reported DC50 for CN1C[C@H](Nc2cnn(C)c(=O)c2Br)C[C@H](c2ccc(CN3CCC4(CC3)CCN(c3ccc(C5CCC(=O)NC5=O)cc3)CC4)cc2)C1 (stereo partly drawn) : what is it?
Response given: < 1 nM

Challenge: Reported DC50 for CN1C[C@H](Nc2cnn(C)c(=O)c2Br)C[C@H](c2ccc(C(=O)NCCOCC(=O)Nc3ccc4c(c3)CN(C3CCC(=O)NC3=O)C4=O)cc2)C1 (stereo partly drawn) : what is it?
Response given: > 30 nM

Challenge: Reported DC50 for CN1C[C@H](Nc2cnn(C)c(=O)c2Br)C[C@H](c2ccc(C(=O)N3CC4(CCN(c5ccc(C6CCC(=O)NC6=O)cc5)CC4)C3)cc2)C1 (stereo partly drawn) : what is it?
Response given: < 1 nM

Challenge: Reported DC50 for CN1C[C@H](Nc2cnn(C)c(=O)c2Br)C[C@H](c2ccc(C(=O)NCCCCCCCCCC(=O)Nc3ccc4c(c3)CN(C3CCC(=O)NC3=O)C4=O)cc2)C1 (stereo partly drawn) : what is it?
Response given: < 1 nM

Challenge: Reported DC50 for CN1C[C@H](Nc2cnn(C)c(=O)c2Br)C[C@H](c2ccc(C(=O)N3CCC(c4ccc5c(c4)CN(C4CCC(=O)NC4=O)C5=O)CC3)cc2)C1 (stereo partly drawn) [Compound 172] : what is it?
Response given: 1 to 30 nM

Continuing:
Challenge: Reported DC50 for CN1C[C@H](Nc2cnn(C)c(=O)c2Br)C[C@H](c2ccc(C(=O)N3CC4(C3)CN(c3cccc5c3C(=O)N(C3CCC(=O)NC3=O)C5=O)C4)cc2)C1 (stereo partly drawn) : what is it?
Response given: < 1 nM

----------
target: KAT2A (Homo sapiens, UniProt Q92830); test: KAT2A degradation, Western Blot (Jess), MOLM-13 cells; assay type: cell-based; set-up: degrader, Western blot; conditions: MOLM-13 cells, KAT2A, 24 h, Western Blot, vs DMSO; read-out: KAT2A MOLM-13 DC50
Reported values of DC50 for individual entries

Challenge: Reported DC50 for CN1C[C@H](Nc2cnn(C)c(=O)c2Cl)C[C@H](c2ccc(C(=O)N3CCC(c4cccc5c4CN(C4CCC(=O)NC4=O)C5=O)CC3)cc2)C1 (some centres unmarked) [Compound 91] : what is it?
Response given: > 30 nM

Challenge: Reported DC50 for CN1C[C@H](Nc2cnn(C)c(=O)c2Cl)C[C@H](c2ccc(C(=O)N3CCC(c4ccc5c(c4)CN(C4CCC(=O)NC4=O)C5=O)CC3)cc2)C1 (some centres unmarked) [Compound 77] : what is it?
Response given: 1 to 30 nM

Continuing:
Challenge: Reported DC50 for CN1C[C@H](Nc2nn(C)c(=O)n(C)c2=O)C[C@H](c2ccc(C(=O)N3CCN(Cc4ccc(C(=O)Nc5cccc6c5C(=O)N(C5CCC(=O)NC5=O)C6=O)cc4)CC3)cc2)C1 (some centres unmarked) [Compound 56] : what is it?
Response given: > 30 nM

Challenge: Reported DC50 for CN1C[C@H](Nc2cnn(C)c(=O)c2Br)C[C@H](c2ccc(C(=O)N3CCN(Cc4ccc5c(c4)CN(C4CCC(=O)NC4=O)C5=O)CC3)cc2)C1 (some centres unmarked) [Compound 71] : what is it?
Response given: < 1 nM

Challenge: Reported DC50 for CN1C[C@H](Nc2cnn(C)c(=O)c2Br)C[C@H](c2ccc(C(=O)N3CCN(Cc4cccc5c4C(=O)N(C4CCC(=O)NC4=O)C5=O)CC3)cc2)C1 (some centres unmarked) [Compound 52] : what is it?
Response given: < 1 nM

----------
target: KAT2A (Homo sapiens); experiment: KAT2A degradation, Western Blot (Jess), MOLM-13 cells; assay type: cell-based; design: degrader, Western blot; settings: MOLM-13 cells, KAT2A, 24 h, Western Blot, vs DMSO; read-out: KAT2A MOLM-13 DC50
test-readout: DC50

Worked cases, answers included:
Challenge: Reported DC50 for CN1C[C@H](Nc2cnn(C)c(=O)c2Br)C[C@H](c2ccc(CN3CCN(c4ccc(C5CCC(=O)NC5=O)cc4)CC3)cc2)C1 (stereo partly drawn) [Compound 69] : what is it?
Response given: < 1 nM

Challenge: Reported DC50 for CN1C[C@H](Nc2cnn(C)c(=O)c2Br)C[C@H](c2ccc(C(=O)N3CCC(COc4cccc5c4C(=O)N(C4CCC(=O)NC4=O)C5=O)CC3)cc2)C1 (stereo partly drawn) [Compound 45] : what is it?
Response given: < 1 nM

Continuing:
Challenge: Reported DC50 for CN1C[C@H](Nc2cnn(C)c(=O)c2Br)C[C@H](c2ccc(CN3CCN(c4cccc(N5CCC(=O)NC5=O)c4)CC3)cc2)C1 [Compound 101] : what is it?
Response given: 1 to 30 nM

Challenge: Reported DC50 for CN1C[C@H](Nc2cnn(C)c(=O)c2Br)C[C@H](c2ccc(C(=O)N3CC(Oc4cccc5c4C(=O)N(C4CCC(=O)NC4=O)C5=O)C3)cc2)C1 (stereo partly drawn) [Compound 62] : what is it?
Response given: 1 to 30 nM

Challenge: Reported DC50 for CN1C[C@H](Nc2cnn(C)c(=O)c2Br)C[C@H](c2ccc(C(=O)NCCOCCn3cc(COCCOc4cccc5c4C(=O)N(C4CCC(=O)NC4=O)C5=O)nn3)cc2)C1 (stereo partly drawn) [Compound 43] : what is it?
Response given: > 30 nM

Challenge: Reported DC50 for Cc1ccc(OC2CCN(C(=O)c3ccc([C@H]4C[C@@H](Nc5cnn(C)c(=O)c5Br)CN(C)C4)cc3)CC2)cc1C1CCC(=O)NC1=O (stereo partly drawn) [Compound 121] : what is it?
Response given: 1 to 30 nM

Challenge: Reported DC50 for CN1C[C@H](Nc2cnn(C)c(=O)c2Br)C[C@H](c2ccc(C(=O)N3CCN(Cc4ccc(C5CCC(=O)NC5=O)cc4)CC3)cc2)C1 (stereo partly drawn) [Compound 80] : what is it?
Response given: < 1 nM

Challenge: Reported DC50 for Cc1ccc(N2CCC3(CCN(Cc4ccc([C@H]5C[C@@H](Nc6cnn(C)c(=O)c6Br)CN(C)C5)cc4)CC3)CC2)cc1C1CCC(=O)NC1=O (stereo partly drawn) [Compound 178] : what is it?
Response given: 1 to 30 nM

Challenge: Reported DC50 for CN1C[C@H](Nc2cnn(C)c(=O)c2Br)C[C@H](c2ccc(CNC3CN(c4ccc(C5CCC(=O)NC5=O)cc4)C3)cc2)C1 (stereo partly drawn) [Compound 103] : what is it?
Response given: < 1 nM

Challenge: Reported DC50 for CN1C[C@H](Nc2cnn(C)c(=O)c2Br)C[C@H](c2ccc(C(=O)N(C)c3cccc(Oc4ccc5c(c4)C(=O)N(C4CCC(=O)NC4=O)C5=O)c3)cc2)C1 (stereo partly drawn) [Compound 34] : what is it?
Response given: 1 to 30 nM

Challenge: Reported DC50 for CN1C[C@H](Nc2cnn(C)c(=O)c2Br)C[C@H](c2ccc(C(=O)NC3CCN(c4cccc5c4C(=O)N(C4CCC(=O)NC4=O)C5=O)CC3)cc2)C1 (stereo partly drawn) [Compound 15] : what is it?
Response given: 1 to 30 nM

Challenge: Reported DC50 for Cc1cc(OC2CCN(Cc3ccc([C@H]4C[C@@H](Nc5cnn(C)c(=O)c5Br)CN(C)C4)cc3)CC2)ccc1C1CCC(=O)NC1=O (stereo partly drawn) [Compound 123] : what is it?
Response given: < 1 nM
